# System: Pseudomonas aeruginosa
# Protocol description: ≥ marks a high value that may be exact or a test limit, other limits are often not marked, values filed in µg/mL are converted to µM
Measured quantity: log10 MIC (log10 of the value in µM)

{"Molecule": "CC[C@H](C)[C@H](N)C(=O)N[C@@H](CC(C)C)C(=O)N[C@@H](C)C(=O)N[C@@H](Cc1c[nH]c2ccccc12)C(=O)N[C@@H](CCCCN)C(=O)N[C@@H](Cc1c[nH]c2ccccc12)C(=O)N1CCC[C@H]1C(=O)N[C@@H](Cc1c[nH]c2ccccc12)C(=O)N[C@@H](Cc1c[nH]c2ccccc12)C(=O)N[C@@H](C)C(=O)N[C@@H](Cc1c[nH]c2ccccc12)C(=O)N[C@@H](CCCN=C(N)N)C(=O)N[C@@H](CCCN=C(N)N)C(N)=O [ILAWKWPWWAWRR]", "log10 MIC": 2.00}
{"Molecule": "CC[C@H](C)[C@H](NC(=O)[C@H](C)NC(=O)[C@H](C)NC(=O)[C@H](CCC(N)=O)NC(=O)CNC(=O)[C@H](CC(C)C)NC(=O)[C@H](Cc1cnc[nH]1)NC(=O)[C@H](CCCCN)NC(=O)[C@H](C)NC(=O)CNC(=O)[C@H](CCCCN)NC(=O)[C@H](CCCNC(=N)N)NC(=O)[C@H](CC(C)C)NC(=O)[C@H](Cc1c[nH]c2ccccc12)NC(=O)[C@H](CCCCN)NC(=O)[C@H](CCCCN)NC(=O)[C@H](Cc1c[nH]c2ccccc12)NC(=O)CN)C(=O)N[C@@H](CCCCN)C(C)=O [GWKKWLRKGAKHLGQAAIK]", "log10 MIC": 0.60}
{"Molecule": "CSCC[C@H](NC(=O)[C@H](Cc1c[nH]c2ccccc12)NC(=O)[C@H](CCCCN)NC(=O)CN)C(=O)N[C@@H](CO)C(=O)N[C@@H](CC(C)C)C(=O)N[C@@H](CC(C)C)C(=O)N[C@@H](CCCCN)C(=O)N[C@@H](Cc1cnc[nH]1)C(=O)N[C@@H](Cc1c[nH]c2ccccc12)C(=O)N[C@@H](CC(C)C)C(=O)N[C@@H](CCCCN)C(N)=O [GKWMSLLKHWLK]", "log10 MIC": 1.40}
{"Molecule": "CSCC[C@H](NC(=O)[C@H](C)NC(C)=O)C(=O)N[C@H](C(=O)N[C@@H](CO)C(=O)N[C@@H](CO)C(=O)O)C(C)C [AMVSS]", "log10 MIC": 1.36}
{"Molecule": "CC[C@H](C)[C@H](NC(=O)[C@@H](NC(=O)[C@@H]1CCCN1C(=O)[C@H](CC(C)C)NC(=O)[C@@H](N)Cc1ccccc1)[C@@H](C)CC)C(=O)NCC(=O)N[C@@H](CCCCN)C(=O)N[C@@H](CC(C)C)C(=O)N[C@@H](CC(C)C)C(=O)N[C@@H](CO)C(=O)NCC(=O)O [FLPIIGKLLSG]", "log10 MIC": 0.94}
{"Molecule": "CC[C@H](C)[C@H](N)C(=O)N[C@@H](CC(C)C)C(=O)N[C@@H](C)C(=O)N[C@@H](Cc1c[nH]c2ccccc12)C(=O)N[C@@H](CCCCN)C(=O)N[C@@H](Cc1c[nH]c2ccccc12)C(=O)N[C@@H](C)C(=O)N[C@@H](Cc1c[nH]c2ccccc12)C(=O)N[C@@H](Cc1c[nH]c2ccccc12)C(=O)N1CCC[C@H]1C(=O)N[C@@H](Cc1c[nH]c2ccccc12)C(=O)N[C@@H](CCCN=C(N)N)C(=O)N[C@@H](CCCN=C(N)N)C(N)=O [ILAWKWAWWPWRR]", "log10 MIC": 2.00}
{"Molecule": "CC[C@H](C)[C@H](NC(=O)[C@H](CCCCN)NC(=O)[C@H](CCCCN)NC(=O)[C@H](Cc1c[nH]c2ccccc12)NC(=O)[C@@H](NC(=O)[C@@H](N)CC(N)=O)C(C)C)C(=O)N[C@@H](CC(C)C)C(=O)NCC(=O)N[C@@H](CCCCN)C(=O)N[C@H](C(=O)N[C@H](C(=O)N[C@@H](CCCCN)C(=O)N[C@H](C(=O)N[C@H](C(=O)N[C@@H](CCCCN)C(N)=O)C(C)C)C(C)C)[C@@H](C)CC)[C@@H](C)CC [NVWKKILGKIIKVVK]", "log10 MIC": 1.36}
{"Molecule": "CC[C@H](C)[C@H](NC(=O)[C@@H](N)Cc1ccc(O)cc1)C(=O)N1CCC[C@H]1C(=O)N[C@@H](CCC(N)=O)C(=O)N1CCC[C@H]1C(=O)N[C@@H](CCCN=C(N)N)C(=O)N1CCC[C@H]1C(=O)N1CCC[C@H]1C(=O)N[C@@H](Cc1cnc[nH]1)C(=O)N1CCC[C@H]1C(=O)N[C@@H](CCCN=C(N)N)C(=O)N[C@@H](CC(C)C)C(=O)O [YIPQPRPPHPRL]", "log10 MIC": 1.81}
{"Molecule": "CC[C@H](C)[C@H](NC(=O)[C@H](CCCCN)NC(=O)[C@@H]1CCCN1C(=O)[C@H](CC(C)C)NC(=O)[C@@H](NC(=O)[C@H](CCCCN)NC(=O)[C@H](CCCCN)NC(=O)[C@H](Cc1c[nH]c2ccccc12)NC(=O)[C@H](CC(N)=O)NC(=O)[C@@H](N)C(C)C)C(C)C)C(=O)N[C@H](C(=O)N[C@@H](CCCCN)C(=O)N[C@H](C(=O)N[C@@H](C)C(=O)N[C@@H](CCCCN)C(N)=O)C(C)C)[C@@H](C)CC [VNWKKVLPKIIKVAK]", "log10 MIC": 2.00}
{"Molecule": "CC(C)C[C@H](NC(=O)[C@H](CCCCN)NC(=O)[C@H](CCCCN)NC(=O)[C@H](Cc1ccccc1)NC(=O)[C@H](Cc1ccccc1)NC(=O)[C@@H](N)CCCCN)C(=O)N[C@@H](CCCCN)C(=O)N[C@@H](CCCCN)C(=O)N[C@@H](C)C(=O)N[C@H](C(=O)N[C@@H](CCCCN)C(=O)N[C@@H](CCCCN)C(=O)NCC(=O)N[C@@H](Cc1ccccc1)C(=O)N[C@@H](CCCCN)C(=O)N[C@@H](CCCCN)C(=O)N[C@@H](Cc1ccccc1)C(=O)N[C@@H](C)C(=O)N[C@@H](CCCCN)C(=O)N[C@H](C(=O)O)C(C)C)C(C)C [KFFKKLKKAVKKGFKKFAKV]", "log10 MIC": 0.72}

---

# MIC listing for each entry below
# Test system: Escherichia coli ATCC 25922

{"Entry smiles": "CC(C)C[C@H](NC(=O)[C@H](CCCN=C(N)N)NC(=O)[C@H](CCCN=C(N)N)NC(=O)[C@H](Cc1ccccc1)NC(=O)[C@H](CCCN=C(N)N)NC(=O)CN)C(=O)N[C@@H](CCCN=C(N)N)C(=O)N[C@@H](CCCCN)C(=O)N[C@@H](CCCCN)C(=O)N[C@H](C(=O)N[C@@H](CCCN=C(N)N)C(=O)N[C@@H](CCCCN)C(N)=O)[C@@H](C)O", "MIC / µM": 128}
{"Entry smiles": "CC[C@H](C)[C@H](NC(=O)[C@H](C)NC(=O)CNC(=O)[C@H](Cc1ccccc1)NC(=O)[C@H](CC(C)C)NC(=O)CN)C(=O)N[C@@H](C)C(=O)NCC(=O)N[C@@H](Cc1ccccc1)C(=O)N[C@H](C(=O)N[C@@H](CCCCN)C(=O)N[C@@H](CCCCN)C(=O)NCC(=O)N[C@@H](Cc1c[nH]c2ccccc12)C(=O)N[C@@H](CCCCN)C(=O)NCC(=O)N[C@@H](CCSC)C(=O)N[C@H](C(=O)N[C@@H](CCCCN)C(=O)NCC(N)=O)C(C)C)[C@@H](C)CC", "MIC / µM": 7.6}
{"Entry smiles": "CC[C@H](C)[C@H](NC(=O)[C@H](CCCN=C(N)N)NC(=O)[C@H](CCC(N)=O)NC(=O)[C@H](CCCCN)NC(=O)[C@@H](NC(=O)[C@H](CCCN=C(N)N)NC(=O)[C@@H](N)CCCCN)[C@@H](C)CC)C(=O)N[C@@H](CCCCN)C(=O)N[C@@H](CC(=O)O)C(=O)N[C@@H](Cc1ccccc1)C(=O)N[C@@H](CC(C)C)C(=O)N[C@@H](CCCN=C(N)N)C(=O)O", "MIC / µM": 2.5}

---

Each entry below carries its measured MIC, system: Escherichia coli ATCC 25922.
Measured quantity: MIC

{"Molecule": "CC[C@H](C)[C@H](NC(=O)[C@H](CC(=O)O)NC(=O)[C@H](Cc1ccccc1)NC(=O)[C@H](CC(C)C)NC(=O)CN)C(=O)N[C@H](C(=O)N[C@@H](CCCCN)C(=O)N[C@@H](CCCCN)C(=O)N[C@H](C(=O)N[C@@H](C)C(=O)NCC(N)=O)C(C)C)C(C)C [GLFDIVKKVAG]", "Measured quantity": "MIC", "Test value": "> 218 µM"}
{"Molecule": "CC[C@H](C)[C@H](NC(=O)CN)C(=O)N[C@@H](CCCCN)C(=O)N[C@@H](CCCN=C(N)N)C(=O)NCC(=O)N[C@H](C(=O)N[C@H](C(=O)N[C@@H](CCCCN)C(=O)N[C@H](C(=O)N[C@H](C(=O)N[C@@H](CCCCN)C(=O)N[C@@H](CCCN=C(N)N)C(N)=O)[C@@H](C)CC)[C@@H](C)CC)[C@@H](C)CC)[C@@H](C)CC [GIKRGIIKIIKR]", "Measured quantity": "MIC", "Test value": "> 128 µM"}
{"Molecule": "CC[C@H](C)[C@@H]1NC(=O)CNC(=O)[C@H](CCCN=C(N)N)NC(=O)[C@H](Cc2ccc(O)cc2)NC(=O)[C@@H]2CSSC[C@H](NC1=O)C(=O)N[C@@H](Cc1ccc(O)cc1)C(=O)N[C@@H](CCCN=C(N)N)C(=O)N[C@@H](CCCCN)C(=O)N[C@H](C(=O)N[C@@H](CCCN=C(N)N)C(N)=O)CSSC[C@H](NC(=O)[C@H](Cc1c[nH]c3ccccc13)NC(=O)[C@@H](N)CCCN=C(N)N)C(=O)N[C@@H](Cc1ccccc1)C(=O)N[C@@H](CCCN=C(N)N)C(=O)N[C@@H](C(C)C)C(=O)N2 [RWCFRVCYRGICYRKCR]", "Measured quantity": "MIC", "Test value": "0.25 µM"}
